tested on: NL-RLuc virus; assay: Inhibition of HIV Replication (NL-RLuc luciferase reporter virus in MT-2 cells); format: cell-based; conditions: Human immunodeficiency virus 1, MT2, 120 h
pEC50: −log10 of the molar value.
compounds and their reported pEC50
measuredQuantity: pEC50

[[record]]
compound = "Cc1nc(C)c([C@H](OC(C)(C)C)C(=O)O)c(N2CCC(C)(C)CC2)c1-c1ccc(OCCCc2ccc(F)cc2)cc1"
measuredquantity = "pEC50"
testresult = 7.92

[[record]]
compound = "COc1ccccc1COc1ccc(-c2c(C)nc(C)c([C@H](OC(C)(C)C)C(=O)O)c2N2CCC(C)(C)CC2)cc1"
measuredquantity = "pEC50"
testresult = 7.70

[[record]]
compound = "Cc1nc(C)c([C@H](OC(C)(C)C)C(=O)O)c(N2CC(C)CC(C)C2)c1-c1ccc(OCCc2ccc(F)cc2)cc1 (stereo partly shown)"
measuredquantity = "pEC50"
testresult = 5.27

[[record]]
compound = "Cc1nc(C)c([C@H](OC(C)(C)C)C(=O)O)c(N2CCC(C)(C)CC2)c1-c1ccc(OCc2cnc(Cl)s2)cc1"
measuredquantity = "pEC50"
testresult = 7.74

[[record]]
compound = "COc1ccc(COc2ccc(-c3c(C)nc(C)c([C@H](OC(C)(C)C)C(=O)O)c3N3CCC(C)(C)CC3)cc2)cc1"
measuredquantity = "pEC50"
testresult = 7.96

[[record]]
compound = "Cc1nc(C)c([C@H](OC(C)(C)C)C(=O)O)c(N2CCC(C)(C)CC2)c1-c1ccc(OCCc2c(F)c(F)cc(F)c2F)cc1"
measuredquantity = "pEC50"
testresult = 8.22

[[record]]
compound = "Cc1nc(C)c([C@H](OC(C)(C)C)C(=O)O)c(N2CCC(C)(C)CC2)c1-c1ccc(OCC(C)(C)c2ccc(F)cc2)cc1"
measuredquantity = "pEC50"
testresult = 7.47

[[record]]
compound = "Cc1nc(C)c([C@H](OC(C)(C)C)C(=O)O)c(N2CCC(C)(C)CC2)c1-c1ccc(OCCc2ccccc2)cc1"
measuredquantity = "pEC50"
testresult = 8.70

[[record]]
compound = "Cc1nc(C)c([C@H](OC(C)(C)C)C(=O)O)c(N2CCC(C)(C)CC2)c1-c1ccc(OCCc2ccc(F)cc2)cc1"
measuredquantity = "pEC50"
testresult = 8.40

[[record]]
compound = "Cc1nc(C)c([C@H](OC(C)(C)C)C(=O)O)c(N2CCC(C)(C)CC2)c1-c1ccc(OCCc2cc(F)ccc2F)cc1"
measuredquantity = "pEC50"
testresult = 8.52

[[record]]
compound = "Cc1nc(C)c([C@H](OC(C)(C)C)C(=O)O)c(N2CCC(C)(C)CC2)c1-c1ccc(OCCc2ccc(F)c(F)c2)cc1"
measuredquantity = "pEC50"
testresult = 8.52

[[record]]
compound = "Cc1cc(CCOc2ccc(-c3c(C)nc(C)c([C@H](OC(C)(C)C)C(=O)O)c3N3CCC(C)(C)CC3)cc2)ccc1F"
measuredquantity = "pEC50"
testresult = 8.30

[[record]]
compound = "Cc1nc(CCOc2ccc(-c3c(C)nc(C)c([C@H](OC(C)(C)C)C(=O)O)c3N3CCC(C)(C)CC3)cc2)cs1"
measuredquantity = "pEC50"
testresult = 8.40


----------
Each item that follows carries a reported pEC50.
tested on: NL-RLuc virus; assay: Inhibition of HIV Replication (NL-RLuc luciferase reporter virus in MT-2 cells); type: cell-based; conditions: Human immunodeficiency virus 1, MT2, 120 h
pEC50: −log10 of the molar value.
measuredQuantity: pEC50

[[record]]
molecule = "Cc1nc(C)c([C@H](OC(C)(C)C)C(=O)O)c(N2CCC(C)(C)CC2)c1-c1ccc(OC(C)Cc2ccc(F)cc2)cc1 (single isomer, unassigned) [Example 21]"
assayedsystem = "NL-RLuc virus"
measuredquantity = "pEC50"
testresult = 7.85

[[record]]
molecule = "Cc1nc(C)c([C@H](OC(C)(C)C)C(=O)O)c(N2CCC(C)(C)CC2)c1-c1ccc(OCCc2ccc(F)cc2F)cc1"
assayedsystem = "NL-RLuc virus"
measuredquantity = "pEC50"
testresult = 8.30

[[record]]
molecule = "Cc1nc(C)c([C@H](OC(C)(C)C)C(=O)O)c(N2CCC(C)(C)CC2)c1-c1ccc(OCc2ccc(Cl)cc2)cc1"
assayedsystem = "NL-RLuc virus"
measuredquantity = "pEC50"
testresult = 8.05

[[record]]
molecule = "COc1ncc(-c2c(C)nc(C)c([C@H](OC(C)(C)C)C(=O)O)c2N2CCC(C)(C)CC2)cn1"
assayedsystem = "NL-RLuc virus"
measuredquantity = "pEC50"
testresult = 6.66

[[record]]
molecule = "CCCOc1ccc(-c2c(C)nc(C)c([C@H](OC(C)(C)C)C(=O)O)c2N2CCC(C)(C)CC2)cc1F"
assayedsystem = "NL-RLuc virus"
measuredquantity = "pEC50"
testresult = 7.68

[[record]]
molecule = "Cc1nc(C)c([C@H](OC(C)(C)C)C(=O)O)c(N2CCC(C)(C)CC2)c1-c1ccc(OCc2cncs2)cc1"
assayedsystem = "NL-RLuc virus"
measuredquantity = "pEC50"
testresult = 7.85

[[record]]
molecule = "Cc1nc(C)c([C@H](OC(C)(C)C)C(=O)O)c(N2CCC(C(F)(F)F)CC2)c1-c1ccc(OCCc2ccc(F)cc2)cc1"
assayedsystem = "NL-RLuc virus"
measuredquantity = "pEC50"
testresult = 6.42

[[record]]
molecule = "Cc1nc(C)c([C@H](OC(C)(C)C)C(=O)O)c(N2CCC(C)(C)CC2)c1-c1ccc(OCCc2ccc(F)cc2)nc1"
assayedsystem = "NL-RLuc virus"
measuredquantity = "pEC50"
testresult = 8.15

[[record]]
molecule = "Cc1nc(C)c([C@H](OC(C)(C)C)C(=O)O)c(N2CCC(C)(C)CC2)c1-c1ccc(OC(C)C)c(Cl)c1"
assayedsystem = "NL-RLuc virus"
measuredquantity = "pEC50"
testresult = 6.92

[[record]]
molecule = "Cc1n[nH]c(C)c1CCOc1ccc(-c2c(C)nc(C)c([C@H](OC(C)(C)C)C(=O)O)c2N2CCC(C)(C)CC2)cc1"
assayedsystem = "NL-RLuc virus"
measuredquantity = "pEC50"
testresult = 8.10

[[record]]
molecule = "Cc1nc(C)c([C@H](OC(C)(C)C)C(=O)O)c(N2CCC(C)(C)CC2)c1-c1ccc(OCCc2ccccn2)cc1"
assayedsystem = "NL-RLuc virus"
measuredquantity = "pEC50"
testresult = 9.00

[[record]]
molecule = "Cc1nc(C)c([C@H](OC(C)(C)C)C(=O)O)c(N2CCC(C)(C)CC2)c1-c1ccc(OCCc2cccc3ccccc23)cc1"
assayedsystem = "NL-RLuc virus"
measuredquantity = "pEC50"
testresult = 8.22

[[record]]
molecule = "Cc1nc(C)c([C@H](OC(C)(C)C)C(=O)O)c(N2CCC(Cc3ccccc3)CC2)c1-c1ccc(OCCc2ccc(F)cc2)cc1"
assayedsystem = "NL-RLuc virus"
measuredquantity = "pEC50"
testresult = 5.75

